test: in vivo; details: rat, iv, LD50 (i.v.), i.v. dose that caused death in 50% of test animals
observed property: LD50

molecule | assay result
N#Cc1ccc(OCC(O)COc2cccc3oc(-c4nnn[nH]4)cc(=O)c23)cc1 (centres unmarked) | > 1180 µmol/kg
O=c1cc(-c2nnn[nH]2)oc2cccc(OCC(O)COc3ccc(O)cc3)c12 (centres unmarked) | 1260 to 4950 µmol/kg
O=C(O)c1cc(=O)c2c(OCC(O)COc3cccc4oc(C(=O)O)cc(=O)c34)cccc2o1 [DSCG, disodium chromoglycate] | 1950 µmol/kg
CCCc1ccc(OCC(O)COc2cccc3oc(-c4nnn[nH]4)cc(=O)c23)cc1 (centres unmarked) | > 493 µmol/kg
O=c1cc(-c2nnn[nH]2)oc2cccc(OCC(O)COc3ccccc3)c12 (centres unmarked) | > 1050 µmol/kg
